test: melting temperature; fluorescence melt of hairpins on a sequencing array, two-state fit, raised by 9.35 °C to match UV melts; conditions: sodium 0.088 M
measurement_label: Tm (°C)

{"seq": "GCTGTGCGAAAGCTTAGC (((..((....))..)))", "measurement_label": "Tm", "result_number": 41.9}
{"seq": "GGTCTCCGAAAGGACACC (((.(((....))).)))", "measurement_label": "Tm", "result_number": 42.1}
{"seq": "GTAGGACCGAAAGGTTAC (((..(((....))))))", "measurement_label": "Tm", "result_number": 28.5}
{"seq": "GCAAGAACGAAAGTTTGC (((..(((....))))))", "measurement_label": "Tm", "result_number": 42.7}
{"seq": "GCGCCGCGAAAGCTGAGC ((.(.((....)).).))", "measurement_label": "Tm", "result_number": 57.5}
{"seq": "GATCGAAACTTCGATC ((((((....))))))", "measurement_label": "Tm", "result_number": 53.5}
{"seq": "GTCGTCGAAAGACCGGAC ((((((....)))..)))", "measurement_label": "Tm", "result_number": 37.4}
{"seq": "GATCACGGATGTGATC ((((((....))))))", "measurement_label": "Tm", "result_number": 67.5}
{"seq": "GATCAGCGCGCTGATC ((((((....))))))", "measurement_label": "Tm", "result_number": 67.4}
{"seq": "GTGCAGGGAAACTTGCGC (.(((.(....).))).)", "measurement_label": "Tm", "result_number": 42}
{"seq": "CGAACCGGAAACGGCTCG (((.(((....))).)))", "measurement_label": "Tm", "result_number": 49.9}
{"seq": "GAACTGCGAAAGCACTTC (((.(((....))).)))", "measurement_label": "Tm", "result_number": 28.4}
{"seq": "GATCTGACGTCAGATC ((((((....))))))", "measurement_label": "Tm", "result_number": 55.5}
